Biological target: topoisomerase I (Homo sapiens, UniProt P11387)
Sequence (P11387 whole entry): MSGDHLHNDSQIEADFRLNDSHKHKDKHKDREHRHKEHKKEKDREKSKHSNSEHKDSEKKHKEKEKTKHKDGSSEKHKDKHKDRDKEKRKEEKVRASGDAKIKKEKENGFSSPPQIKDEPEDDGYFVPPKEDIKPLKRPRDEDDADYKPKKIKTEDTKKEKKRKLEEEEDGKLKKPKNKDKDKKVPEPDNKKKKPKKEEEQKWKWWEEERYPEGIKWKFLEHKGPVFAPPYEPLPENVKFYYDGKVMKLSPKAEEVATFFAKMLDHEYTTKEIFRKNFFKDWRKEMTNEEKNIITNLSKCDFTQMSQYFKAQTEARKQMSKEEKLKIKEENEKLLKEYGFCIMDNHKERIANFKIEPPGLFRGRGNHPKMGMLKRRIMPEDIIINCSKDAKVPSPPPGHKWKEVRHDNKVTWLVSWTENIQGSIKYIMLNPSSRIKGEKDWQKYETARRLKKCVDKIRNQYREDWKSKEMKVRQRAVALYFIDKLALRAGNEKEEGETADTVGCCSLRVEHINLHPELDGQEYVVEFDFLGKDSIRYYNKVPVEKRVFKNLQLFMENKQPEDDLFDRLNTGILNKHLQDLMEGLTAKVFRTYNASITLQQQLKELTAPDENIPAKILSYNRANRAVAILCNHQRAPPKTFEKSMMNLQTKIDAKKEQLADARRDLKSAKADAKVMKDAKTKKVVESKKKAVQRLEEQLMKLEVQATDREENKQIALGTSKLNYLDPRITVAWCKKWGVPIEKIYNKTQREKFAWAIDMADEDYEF
Assay: Topoisomerase I-inhibiting activity
Settings: concentration of a compound needed to inhibit topoisomerase I activity by 50%
Quick reference for pEC50 among some molecules
In textbook form, pEC50 equals minus log to base ten of the concentration in mol/L.

O=C1OC(=O)c2c1c1c3ccc(O)cc3[nH]c1c1c2c2ccc(O)cc2n1C1OC(CO)C(O)C(O)C1O (stereo not shown) [Compound [c]]	6.74

State its pEC50 on topoisomerase I (Homo sapiens, UniProt P11387): CN1C(=O)c2c(c3c4ccc(O)cc4n([C@@H]4O[C@H](CO)[C@@H](O)[C@H](O)[C@H]4O)c3c3[nH]c4cc(O)ccc4c23)C1=O [Compound [b]]
6.17
